Just for reference, PubChem BioAssay (NCATS) is where these values come from.

- Test system: Zika virus NS2B-NS3 protease (linked construct)
- test: Primary screen NINDS Rhodamine qHTS for Zika virus inhibitors (AID 1347160); note: nearly all actives have a fitted effect of over 55% in size
- applied conditions: purified NS2B-NS3 protease, Rhodamine110 substrate fluorescence; series mostly up to 57.1 µM
Inconclusive results are not listed. The source made the active and inactive calls. Calls come from the whole dose curve; as a rule, active = well fitted inhibition curve with a large enough effect; inconclusive = small, poorly fitted or top-dose-only effect; inactive = no such curve, though single readings can be large or run the other way.
In this exercise, the only acceptable responses are active, inactive

Here are 3 compounds together with their reported answers.
>>> qualitative_label("CC#CC(=O)N1CCC[C@H]1c1nc(-c2ccc(C(=O)Nc3ccccn3)cc2)c2c(N)nccn12")
"inactive"
>>> qualitative_label("COc1cc2c(cc1OC)-c1[nH]nc(Nc3cccc(F)c3)c1C2")
"inactive"
>>> qualitative_label("OC/C=C/C=C/[C@H]1Cc2cc(O)cc(O)c2O1")
"inactive"

Pending compound:
### Prompt Name the outcome recorded for N#Cc1ccc(C(=O)N2CCC3(CC2)N=C(N)c2c(F)ccc(F)c2N3)cn1 in the assay.
### Response inactive

###

- Test system: Tov112D
- test: Primary qHTS to identify gynecologic anti-cancer compounds using libraries of approved drugs and bioactive compounds (AID 1345084); note: nearly all actives have a fitted effect of over 55% in size
- applied conditions: Gynecologic cancer cell panel viability, ATPlite luminescence, 48 h; series mostly up to 57.5 µM
Inconclusive results are not listed. Activity calls are given as the source filed them. The call rests on the fitted dose curve; in most records, active means well fitted cell-killing curve with a large enough effect; inconclusive means small, poorly fitted or top-dose-only effect, or effect the other way; inactive means flat fitted curve, though single readings scatter.
In this exercise, the only acceptable responses are active, inactive

>>> qualitative_label("c1ccc(N2CCN(CCc3nn[nH]n3)CC2)cc1")
"inactive"
>>> qualitative_label("CC1(C)CC[C@]2(C(=O)O)CC[C@]3(C)C(=CCC4[C@@]5(C)C[C@@H](O)[C@H](O)C(C)(C)C5CC[C@]43C)C2C1 (stereo partly drawn)")
"inactive"
>>> qualitative_label("CC(=O)N[C@@H](C(=O)O[C@H]1CCC(C)(C)[C@@H]2CCC3=C(COC3=O)[C@@]12C)C(C)C")
"inactive"
>>> qualitative_label("CC(=O)C=C=C1C(C)(C)CC(O[C@@H]2O[C@H](CO)[C@@H](O)[C@H](O)[C@H]2O)CC1(C)O (stereo partly drawn)")
"inactive"
>>> qualitative_label("Nc1ncnc2c1nc(N)n2[C@@H]1O[C@H](CO)[C@@H](O)[C@H]1O")
"active"
>>> qualitative_label("C/C=C/c1ccc(O[C@@H]2O[C@H](CO)[C@@H](O)[C@H](O)[C@H]2O)c(OC)c1")
"inactive"
>>> qualitative_label("COc1ccc(-n2[nH]c(=O)c3[nH]c4cc(Cl)ccc4c(=O)c3c2=O)c(C)c1")
"inactive"

Pending compound:
### Prompt Name the outcome recorded for COC(=O)C1=COC(O[C@@H]2O[C@H](CO)[C@@H](O)[C@H](O)[C@H]2O)[C@H]2[C@@H]1[C@H](OC(=O)CCc1ccc(O)cc1)C[C@]2(C)O (stereo partly drawn) in the assay.
### Response inactive

###

- System: C33A
- test: Primary qHTS to identify gynecologic anti-cancer compounds using libraries of approved drugs and bioactive compounds (AID 1345084); note: nearly all actives have a fitted effect of over 55% in size; for activity change, negative = cytotoxicity: % is set by controls: 0 for no effect and ±100 for the full control effect
- applied conditions: Gynecologic cancer cell panel viability, ATPlite luminescence, 48 h; series mostly up to 57.5 µM
Inconclusive results are not listed. Calls of active or inactive are those of the source. Calls come from the whole dose curve; as a rule, active = well fitted cell-killing curve with a large enough effect; inconclusive = small, poorly fitted or top-dose-only effect, or effect the other way; inactive = flat fitted curve, though single readings scatter.
reported property: activity change, negative = cytotoxicity

>>> assay_value("O=C(O)/C=C/c1cc2c(cc1O[C@@H]1O[C@H](CO)[C@@H](O)[C@H](O)[C@H]1O)OCO2")
"inactive"
>>> assay_value("CC1CC(C(O)C(C)(C)O)OC2CC3(C)C4(C)CCC5C(C)(C)C(=O)CCC5(C)C4CCC3(O)C12O (stereo not given)")
"inactive"
>>> assay_value("CC(C)(O)c1ccc2c(c1)C(O)C[C@H]1[C@](C)(C(=O)O)CCC[C@]21C (stereo not given in full)")
"inactive"
>>> assay_value("CC(=O)OC1C(=O)C2(C)C(O)CC3OCC3(OC(C)=O)C2C(OC(=O)c2ccccc2)C2(O)CC(OC(=O)C(O)C(NC(=O)c3ccccc3)c3ccccc3)C(C)=C1C2(C)C (stereo not given)")
"inactive"

# ---- query molecule ----
### Prompt Fill in the blank: the reported activity change, negative = cytotoxicity of C[C@@H]1O[C@@H](O[C@H]2[C@H](O[C@H]3[C@H](O[C@H]4CC[C@@]5(C)C(CC[C@]6(C)C5CC=C5[C@@H]7CC(C)(C)CC[C@]7(C(=O)O[C@@H]7O[C@H](CO)[C@@H](O[C@@H]8O[C@@H](C)[C@H](O)[C@@H](O)[C@H]8O)[C@H](O)[C@H]7O)CC[C@]56C)C4(C)C)OC[C@H](O)[C@@H]3O)O[C@H](CO)[C@@H](O)[C@@H]2O)[C@H](O)[C@H](O)[C@H]1O (stereo not given in full) is ____.
### Response -22.7% [at 6.55 µM] (inactive)
